These measurements were taken from patent US20250127804A1.

# Tested on: purine nucleoside phosphorylase (PNP)
# test: PNP enzyme activity assay (release of NAM monitored by 1H NMR)
# Format: in vitro ADME
# test conditions: rank order
value type: overall trend of stability of NR esters to PNP

[[record]]
compound = "CC(=O)O[C@@H]1[C@H](OC(C)=O)[C@@H](COC(=O)CC(=O)OC[C@H]2O[C@@H]([n+]3cccc(C(N)=O)c3)[C@H](OC(C)=O)[C@@H]2OC(C)=O)O[C@H]1[n+]1cccc(C(N)=O)c1 [compound 8a, NR malonate]"
tested_target = "purine nucleoside phosphorylase (PNP)"
reported_measurement = "NRTA>NRAD>NRML>NRLR>NRCl"

[[record]]
compound = "NC(=O)c1ccc[n+]([C@@H]2O[C@H](CO)[C@@H](O)[C@H]2O)c1 [NRCl, Nicotinamide riboside, reference compound]"
tested_target = "purine nucleoside phosphorylase (PNP)"
reported_measurement = "NRTA>NRAD>NRML>NRLR>NRCl"

[[record]]
compound = "CC(=O)O[C@@H]1[C@H](OC(C)=O)[C@@H](COC(=O)CCCCC(=O)OC[C@H]2O[C@@H]([n+]3cccc(C(N)=O)c3)[C@H](OC(C)=O)[C@@H]2OC(C)=O)O[C@H]1[n+]1cccc(C(N)=O)c1 [compound 8d, NR adipate]"
tested_target = "purine nucleoside phosphorylase (PNP)"
reported_measurement = "NRTA>NRAD>NRML>NRLR>NRCl"

[[record]]
compound = "CC(=O)OC[C@H]1O[C@@H]([n+]2cccc(C(N)=O)c2)[C@H](OC(C)=O)[C@@H]1OC(C)=O [NRTA, NR triacetate, reference compound]"
tested_target = "purine nucleoside phosphorylase (PNP)"
reported_measurement = "NRTA>NRAD>NRML>NRLR>NRCl"


----------
# test: Octanol-water partition coefficient (Pow) by 1H NMR
# Format: physicochemical
# test conditions: 1-octanol/D2O, average of triplicate; read-out: Average (LogPow)
value type: logP

[[record]]
molecule = "CCCCCCCCCCCC(=O)OC[C@H]1O[C@@H]([n+]2cccc(C(N)=O)c2)[C@H](OC(C)=O)[C@@H]1OC(C)=O [NRLR-Cl, NRLR-Chloride]"
reported_measurement = 1.82

